Assay: Solubility of the compound in Gelucire 50/13
Format: physicochemical
observable: solubility

Please look up its solubility: "O=C([O-])COC[C@H]1CC[C@H](COC(=O)N(c2ccccc2)c2ccc(Cl)cc2)CC1.[Na+]"
< 10000 µg/mL

---

Test: Solubility of the compound in corn oil
Type: physicochemical
observable: solubility

Which solubility is reported for this molecule? "O=C([O-])COC[C@H]1CC[C@H](COC(=O)N(c2ccccc2)c2ccc(Cl)cc2)CC1.[Na+]"
< 100 µg/mL

---

Assay: Terminal phase half life in Sprague-Dawley rat at 1.25 mg/kg, po after 0.1 to 21 hrs by LC/MS/MS method
Type: ADME, organism-based
Conditions: in vivo, read-out: beta t1/2 (converted)
observable: half-life (h)
Give the quantity in h, number only.

Using the record for "O=C(COC[C@H]1CC[C@H](COC(=O)N(c2ccccc2)c2ccc(Cl)cc2)CC1)NCCS(=O)(=O)O" , report its half-life.
3.51

---

Test: Solubility of the compound in Imwitor 742
Assay type: physicochemical
observable: solubility (mg/mL)
Express the result in mg/mL but write the number alone.

Could you tell me which solubility is on file for "O=C([O-])COC[C@H]1CC[C@H](COC(=O)N(c2ccccc2)c2ccc(Cl)cc2)CC1.[Na+]" ?
16.2

---

Test: Solubility of the compound in PEG6000
Type: physicochemical
observable: solubility

Param item = "O=C([O-])COC[C@H]1CC[C@H](COC(=O)N(c2ccccc2)c2ccc(Cl)cc2)CC1.[Na+]" ; retrieve measured solubility.
< 10000 µg/mL

---

Test: Solubility of the compound in Gelucire 44/14
Type: physicochemical
observable: solubility (µg/mL)
Only the number, expressed in µg/mL, is required.

// returns reported solubility for input "O=C([O-])COC[C@H]1CC[C@H](COC(=O)N(c2ccccc2)c2ccc(Cl)cc2)CC1.[Na+]"
1610

---

Test: Solubility of the compound in TPGS 1000
Assay type: physicochemical
observable: solubility (µg/mL)
Numbers only here, please. The scale is µg/mL.

Using the record for "O=C([O-])COC[C@H]1CC[C@H](COC(=O)N(c2ccccc2)c2ccc(Cl)cc2)CC1.[Na+]" , report its solubility.
2550

---

Experiment: Solubility of the compound in Safflower oil
Assay type: physicochemical
observable: solubility

I would be grateful if you could share the reported solubility for "O=C([O-])COC[C@H]1CC[C@H](COC(=O)N(c2ccccc2)c2ccc(Cl)cc2)CC1.[Na+]" .
< 100 µg/mL

---

Test: Solubility of the compound in PEG400
Format: physicochemical
observable: solubility (µg/mL)
Unit µg/mL implied. Number only.

Give its solubility value. Item: "O=C([O-])COC[C@H]1CC[C@H](COC(=O)N(c2ccccc2)c2ccc(Cl)cc2)CC1.[Na+]"
4850
